// provenance: the supplement of paper PMC13380429

# Test system: Caco-2
# METHOD_NOTES: relative viability EC50 (midpoint between 100% and the lowest measured viability); higher = less toxic
# CONDITION_SET: 72 h
MEASUREMENT_TYPE: relative viability EC50

* CO[C@@H]1[C@H](O)[C@@H](CO)O[C@H]1n1cnc2c(NC3CCCCC3)ncnc21 [SDZ-WAG-994] | > 10 µM
* O=C(CCCCCCC(=O)Nc1cccnc1)NO [pyroxamide] | 1.93 µM
* Cn1cc(-c2ccc3ncc(Cc4ccc5ncccc5c4)n3n2)cn1 [NVP-BVU972] | > 10 µM
* CCN(CC)CCNC(=O)c1cc(Br)c(N)cc1OC [bromopride] | > 10 µM
* COc1ncc(-c2ccc3c(Nc4cc(Oc5cc(F)cc(F)c5)cc(C(=O)O)c4)c(S(=O)(=O)NC4CC4)cnc3c2)c(OC)n1 | > 10 µM
* NCCNCCNCCN [trientine] | > 10 µM
* COCCNC(=O)Cn1cnc([N+](=O)[O-])n1 [sanazole] | > 10 µM
* Cn1cc(-c2[nH]c3cc(NC(=O)[C@H](N)C4CCCCC4)cc4c3c2C=NNC4=O)cn1 | 3.48 µM
* C[C@@]1(O)[C@H](O)[C@@H](CO)O[C@H]1n1cnc2c(NC3CCCC3)nc(Cl)nc21 [2'-MeCCPA] | > 10 µM
